- PROCEDURE TEXT: NCI Yeast Anticancer Drug Screen. Data for the cln2 rad14 strain (AID 165);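 note: 0% = growth equal to vehicle treated cultures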
- APPLIED CONDITIONS: S. cerevisiae cln2 rad14 strain, at 50.0 µM, hits give high values
Compounds without any hit were thinned out: in the full panel of roughly 79,000, 15% have a hit. Where a SMILES comes first, the peptide text is derived from it. The star is where a group is joined. Trt = c1ccc(C(c2ccccc2)(c2ccccc2)*)cc1; Cbz = O=C(OCc1ccccc1)*; Bz = O=C(c1ccccc1)*
ENDPOINT NAME: growth inhibition (%)
Answers are plain numbers, in %.

Here's what some known entries look like.
>>> assay_value("O=[N+]([O-])c1ccc2nc(/C=C(\\O)c3ccccc3)c(NC34CC5CC(CC(C5)C3)C4)nc2c1")
-39.4
>>> assay_value("COC(=O)CN(c1c(C)cc(C)c(N)c1C)S(=O)(=O)c1ccccc1")
5.4
>>> assay_value("CC1(C)OC2(C)CCC1C1C2N1C(=O)Nc1cccc2ccccc12 (stereo not given)")
-6.5
>>> assay_value("COC(=O)C(CSC(=O)c1ccccc1)NC(=O)CNC(=O)CNC(=O)C(CCCCNC(=O)OCc1ccccc1)NC(=O)CNC(=O)C(CSC(c1ccccc1)(c1ccccc1)c1ccccc1)NC(=O)OCc1ccccc1 (stereo not given) (Cbz-C(Trt)GK(Cbz)GGC(Bz)-OMe; configuration not given here)")
-6
>>> assay_value("COC(=O)CC(c1ccc(OC)cc1)c1cc2c(cc1OC)OCO2 (stereo not given)")
7.5
>>> assay_value("Cc1ccc(C)c(NS(=O)(=O)c2ccc(Cl)c([N+](=O)[O-])c2)c1")
96.8
>>> assay_value("O=C(CCCc1ccccc1)OCC(=O)c1ccc(-c2ccccc2)cc1")
3.45
>>> assay_value("C(=C\\c1csnn1)/c1ccc(/C=C/c2csnn2)cc1")
11.9

Could I get growth inhibition for every one of these entries?
1. CN=C(NC#N)NCCSCc1nc[nH]c1C
2. CCCC(=O)N[C@H]1C2C3CC4C5CC(C42)C1(C)C53 (stereo not given in full)

[-5.2, 10.3]

Can you give me growth inhibition for all of these, one by one?
1. CCCCCCC(/C=C/c1ccc(Cl)c(Cl)c1)=N\Nc1ccccc1
2. CC(C)=C(CO)CCC(C)C
3. O=C(Nc1ccccc1C(=O)N/N=C/c1ccccc1O)c1ccccc1Cl
4. S=C(Cc1cccc2ccccc12)N1CCN(c2ccc(Cl)cc2)CC1
5. O=C1c2cc3c(cc2C(=O)c2[nH]c(=O)ccc21)CCCC3

1. -19.7
2. 16.9
3. 84.8
4. -7.9
5. 0.85

List reported growth inhibition for each of these compounds:
1. Cc1cccc2nc(-c3ccccc3)ccc12
2. COc1ccc(C(=O)CCN(C)C)cc1
3. Nc1ccc2ccccc2c1C(=O)c1ccccc1
4. Cc1cc(C)c(SSc2c(C)cc(C)cc2C)c(C)c1
5. Nc1ccn(C2CC3OCC3O2)c(=O)n1 (stereo not given)

1. 5.6
2. -11.3
3. 37.1
4. -15.6
5. -5.7

For each of the compounds below, state growth inhibition.
1. O=C1NC(=O)/C(=C\c2cccc(Br)c2)N1
2. COc1cc(C2c3cc4c(cc3OC(NCCc3ccccc3)C2C)OCO4)cc(OC)c1OC (stereo not given)
3. Cc1ccc(N=Nc2ccc(N(C)C)cc2)cc1
4. O=C(NC1CCCCC1)C1C2CC3OC(=O)C1C3C2 (stereo not given)
5. CC(=O)Nc1ncc(Sc2ccc([N+](=O)[O-])cc2)s1
6. C=CC12CCCCC1C(NC)Cc1ccc(OC)c(O)c12 (stereo not given)
7. NNC(=O)CNC(=O)c1ccccc1

1: 6.8; 2: -25.4; 3: -51.6; 4: -27.6; 5: 15.3; 6: 1.8; 7: 1.85
